# Test system: microfilariae of Dirofilaria immitis
# Assay text: Dirofilaria immitis, Microfilaria (DiMF) Assay
# Format: cell-based
# Conditions: read-out: D. immitis activity level (IC50 or MED)
Measurement kind: IC50

Example entries begin here.
Cc1cccnc1Nc1nc(-c2cc(C(F)(F)F)c(OC3CC3)cn2)ns1    200 to 500 nM
CC(=O)N(C)c1cc(C(F)(F)F)cnc1Nc1nc(-c2cc3c(cn2)N(C(C)C)CC3)ns1    < 200 nM

Form: Entry = "CC(C)Oc1ccc(-c2nsc(Nc3ncccc3C(=O)N(C)C3CC(F)(F)C3)n2)nc1" | System = microfilariae of Dirofilaria immitis | IC50 = ____
500 to 5000 nM

Ok, now Cc1cccnc1Nc1nc(-c2ccc(OC3CCN(C4CC4)CC3(F)F)cn2)ns1 (stereo not drawn)
200 to 500 nM

Ok, now "CC(C)c1cccnc1Nc1nc(-c2ccc(OC(F)F)cn2)ns1"
500 to 5000 nM
